Test system: nutritional obesity model rats
Assay: Weight of fat pads around kidneys of nutritional obesity model rats (Example 19)
Type: in vivo, rat
Settings: after 30 d administration; x ± s
Description: Fucoxanthin group and test animal groups were administrated with same doses of the drugs. The basal feed control group continued to be fed with basal feed, other groups with high-fat feed. […] The body weights of the animals were measured one time each week, feed-intakes of the rats were also observed and recorded. […]
readout type: Weight fat pads around kidneys(g)

# molecule, experimental target, result
data = [
    ("C\\C(C=C=C1C(C)(C)CC(O)C[C@@]1(C)O)=C/C=C/C(C)=C/C=C/C=C(C)/C=C/C=C(\\C)C(=O)CC12OC1(C)CC(O)CC2(C)C (some centres unmarked) [fucoxanthol, reference compound]", "nutritional obesity model rats", "7.0 ± 0.58ΔΔ g"),
    ("CC(=O)OC1CC(C)(C)C(=C=C/C(C)=C/C=C/C(C)=C/C=C/C=C(C)/C=C/C=C(\\C)C(=O)CC23OC2(C)CC(OC(=O)CNC(=O)C(CS)NC(=O)CCC(N)C(=O)O)CC3(C)C)[C@](C)(O)C1 (some centres unmarked)", "nutritional obesity model rats", "4.00 ± 0.40ΔΔ g"),
    ("CC(=O)OC1CC(C)(C)C(=C=C/C(C)=C/C=C/C(C)=C/C=C/C=C(C)/C=C/C=C(\\C)C(=O)CC23OC2(C)CC(OC(=O)/C=C(/CC(=O)O)C(=O)O)CC3(C)C)[C@](C)(O)C1 (some centres unmarked) [compound 8, fucoxanthin aconitate]", "nutritional obesity model rats", "4.40 ± 0.34ΔΔ g"),
]

// Input: CC(=O)OC1CC(C)(C)C(=C=C/C(C)=C/C=C/C(C)=C/C=C/C=C(C)/C=C/C=C(\C)C(=O)CC23OC2(C)CC(OC(=O)CCCN(C)C)CC3(C)C)[C@](C)(O)C1 (some centres unmarked) [compound 9, fucoxanthin di-methylaminobutyrate] . Output its Weight fat pads around kidneys(g) only.
5.00 ± 0.23ΔΔ g

# return recorded Weight fat pads around kidneys(g) for input CC(=O)OC1CC(C)(C)C(=C=C/C(C)=C/C=C/C(C)=C/C=C/C=C(C)/C=C/C=C(\C)C(=O)CC23OC2(C)CC(O)CC3(C)C)[C@](C)(O)C1 (some centres unmarked) [fucoxanthin, reference compound]
7.42 ± 0.60Δ g

* * *

Reported Body weight(g) (After-experiment) values for a set of compounds
System: nutritional obesity model rats
Assay: Weight of fat pads around kidneys of nutritional obesity model rats (Example 19)
Type: in vivo, rat
Details: Table 3; after 30 d administration; x ± s
Your answer is read as g, so omit the unit and give the number.

Sample answers from the record:
# compound, scale unit, Body weight(g) (After-experiment)
data = [
    ("CC(=O)OC1CC(C)(C)C(=C=C/C(C)=C/C=C/C(C)=C/C=C/C=C(C)/C=C/C=C(\\C)C(=O)CC23OC2(C)CC(OC(=O)CCCN(C)C)CC3(C)C)[C@](C)(O)C1 (some centres unmarked) [compound 9, fucoxanthin di-methylaminobutyrate]", "g", 514.13),
    ("C\\C(C=C=C1C(C)(C)CC(O)C[C@@]1(C)O)=C/C=C/C(C)=C/C=C/C=C(C)/C=C/C=C(\\C)C(=O)CC12OC1(C)CC(O)CC2(C)C (some centres unmarked) [fucoxanthol, reference compound]", "g", 527.00),
    ("CC(=O)OC1CC(C)(C)C(=C=C/C(C)=C/C=C/C(C)=C/C=C/C=C(C)/C=C/C=C(\\C)C(=O)CC23OC2(C)CC(OC(=O)CNC(=O)C(CS)NC(=O)CCC(N)C(=O)O)CC3(C)C)[C@](C)(O)C1 (some centres unmarked)", "g", 522.08),
    ("CC(=O)OC1CC(C)(C)C(=C=C/C(C)=C/C=C/C(C)=C/C=C/C=C(C)/C=C/C=C(\\C)C(=O)CC23OC2(C)CC(O)CC3(C)C)[C@](C)(O)C1 (some centres unmarked) [fucoxanthin, reference compound]", "g", 531.00),
]

Then this compound:
State, in one line, measured Body weight(g) (After-experiment) of CC(=O)OC1CC(C)(C)C(=C=C/C(C)=C/C=C/C(C)=C/C=C/C=C(C)/C=C/C=C(\C)C(=O)CC23OC2(C)CC(OC(=O)/C=C(/CC(=O)O)C(=O)O)CC3(C)C)[C@](C)(O)C1 (some centres unmarked) [compound 8, fucoxanthin aconitate]
518.18
